Test system: Pieris rapae
test-name: Insecticidal activity, spray on pre-infested radish plants: Pieris rapae
Type: in vivo
conditions-used: 144 h, read-out: fatality rate on Pieris rapae
Method: For determination of insecticidal activity, the test method was as follows: a test solution with a desired concentration was prepared by dissolving a test compound sample in a suitable solvent (the kind of solvent was such as acetone, methanol, DMSO, etc., and was selected according to its dissolving ability for the sample). The test cell was composed of a small open container with 12-15 day old radish plants inside. […]
Below: a set of entries, each annotated with reported pest or weed control at 10 ppm.

Below: 3 compounds and their reported pest or weed control at 10 ppm.
{"compound": "Cc1cc(C2=NOC(c3cc(Cl)c(F)c(Cl)c3)(C(F)(F)F)C2)ccc1C(=O)NCc1ncc(Cl)cc1Cl (stereo not shown)", "system-under-test": "Pieris rapae", "metric": "pest or weed control at 10 ppm", "endpoint-result": "> 80%"}
{"compound": "Cc1cc(C2=NOC(c3cc(Cl)c(F)c(Cl)c3)(C(F)(F)F)C2)ccc1C(=O)NCc1cnc(Cl)cc1C(F)(F)F (stereo not shown)", "system-under-test": "Pieris rapae", "metric": "pest or weed control at 10 ppm", "endpoint-result": "> 80%"}
{"compound": "Cc1cc(C2=NOC(c3cc(Cl)c(F)c(Cl)c3)(C(F)(F)F)C2)ccc1C(=O)NCc1ncccc1Cl (stereo not shown)", "system-under-test": "Pieris rapae", "metric": "pest or weed control at 10 ppm", "endpoint-result": "> 80%"}

Here is the next item to consider.
Query string: What does the record list as pest or weed control at 10 ppm for Cc1cc(C2=NOC(c3cc(Cl)c(F)c(Cl)c3)(C(F)(F)F)C2)ccc1C(=O)NCCc1cnccc1C(F)(F)F (stereo not shown) ?
Result string: > 80%

----------
Below: a set of entries, each annotated with reported Fatality rate on Chilo suppressalis (%).
System: Chilo suppressalis
test-name: Insecticidal activity, spray on pre-infested radish plants: Chilo suppressalis
Assay type: in vivo
conditions-used: 1 ppm, Table 3
# unit: % | format: bare number

Query string: What does the record list as Fatality rate on Chilo suppressalis (%) for Cc1cc(C2=NOC(c3cc(F)c(F)c(F)c3)(C(F)(F)F)C2)ccc1C(=O)NCc1ccc(Cl)nc1 (centres unmarked) ?
Result string: 100

Query string: What does the record list as Fatality rate on Chilo suppressalis (%) for Cc1cc(C2=NOC(c3cc(Cl)cc(Cl)c3)(C(F)(F)F)C2)ccc1C(=O)NCc1ccc(Cl)nc1 (centres unmarked) [CK1, reference compound] ?
Result string: 50

Query string: What does the record list as Fatality rate on Chilo suppressalis (%) for Cc1cc(C2=NOC(c3cc(Cl)c(F)c(Cl)c3)(C(F)(F)F)C2)ccc1C(=O)NCc1ccc(Cl)nc1 (centres unmarked) ?
Result string: 100

Query string: What does the record list as Fatality rate on Chilo suppressalis (%) for Cc1cc(C2=NOC(c3cc(Cl)c(F)c(Cl)c3)(C(F)(F)F)C2)ccc1C(=O)NCc1ncc(C(F)(F)F)cc1Cl (centres unmarked) ?
Result string: 100

Query string: What does the record list as Fatality rate on Chilo suppressalis (%) for Cc1cc(C2=NOC(c3cc(F)c(F)c(F)c3)(C(F)(F)F)C2)ccc1C(=O)NCc1ncc(C(F)(F)F)cc1Cl (centres unmarked) ?
Result string: 100

----------
Tested on: Plutella xylostella
test-name: Insecticidal activity, spray on pre-infested radish plants: Plutella xylostella
Type: in vivo
conditions-used: Plutella xylostella, 144 h, read-out: fatality rate on Plutella xylostella
Below: a set of entries, each annotated with reported pest or weed control at 1 ppm.

{"compound": "Cc1cc(C2=NOC(c3cc(Cl)c(F)c(Cl)c3)(C(F)(F)F)C2)ccc1C(=O)NCc1cnc(Cl)cc1C(F)(F)F (stereo not drawn) [Compound 5]", "system-under-test": "Plutella xylostella", "metric": "pest or weed control at 1 ppm", "endpoint-result": "> 80%"}
{"compound": "Cc1cc(C2=NOC(c3cc(Cl)c(F)c(Cl)c3)(C(F)(F)F)C2)ccc1C(=O)NCc1ncccc1Cl (stereo not drawn) [Compound 13]", "system-under-test": "Plutella xylostella", "metric": "pest or weed control at 1 ppm", "endpoint-result": "> 80%"}

Here is the next item to consider.
Query string: What does the record list as pest or weed control at 1 ppm for Cc1cc(C2=NOC(c3cc(Cl)c(F)c(Cl)c3)(C(F)(F)F)C2)ccc1C(=O)NCc1ncc(Cl)cc1Cl (stereo not drawn) [Compound 11] ?
Result string: > 80%

----------
Tested on: Tetranychus cinnabarinus
test-name: Acaricidal activity, slide immersion of female adult mites: Tetranychus cinnabarinus
Assay type: in vivo
conditions-used: 24 h, read-out: fatality rate on Tetranychus cinnabarinus
metric: pest or weed control at 1 ppm

Below: 8 compounds and their reported pest or weed control at 1 ppm.
{"compound": "Cc1cc(C2=NOC(c3cc(Cl)c(F)c(Cl)c3)(C(F)(F)F)C2)ccc1C(=O)NCc1ncc(C(F)(F)F)cc1Cl (stereo not shown)", "system-under-test": "Tetranychus cinnabarinus", "endpoint-result": "> 80%"}
{"compound": "Cc1cc(C2=NOC(c3cc(Cl)c(F)c(Cl)c3)(C(F)(F)F)C2)ccc1C(=O)NCCc1cnccc1C(F)(F)F (stereo not shown)", "system-under-test": "Tetranychus cinnabarinus", "endpoint-result": "> 80%"}
{"compound": "Cc1cc(C2=NOC(c3cc(Cl)c(F)c(Cl)c3)(C(F)(F)F)C2)ccc1C(=O)NCc1cnc(Cl)cc1Cl (stereo not shown)", "system-under-test": "Tetranychus cinnabarinus", "endpoint-result": "> 80%"}
{"compound": "Cc1cc(C2=NOC(c3cc(Cl)c(F)c(Cl)c3)(C(F)(F)F)C2)ccc1C(=O)NCCc1ncc(C(F)(F)F)cc1Cl (stereo not shown)", "system-under-test": "Tetranychus cinnabarinus", "endpoint-result": "> 80%"}
{"compound": "Cc1cc(C2=NOC(c3cc(Cl)c(F)c(Cl)c3)(C(F)(F)F)C2)ccc1C(=O)NCc1ncc(Cl)cc1Cl (stereo not shown)", "system-under-test": "Tetranychus cinnabarinus", "endpoint-result": "> 80%"}
{"compound": "Cc1cc(C2=NOC(c3cc(Cl)c(F)c(Cl)c3)(C(F)(F)F)C2)ccc1C(=O)NCCc1ccc(Cl)nc1 (stereo not shown)", "system-under-test": "Tetranychus cinnabarinus", "endpoint-result": "> 80%"}
{"compound": "Cc1cc(C2=NOC(c3cc(Cl)c(F)c(Cl)c3)(C(F)(F)F)C2)ccc1C(=O)NCc1ccc(Cl)nc1 (stereo not shown)", "system-under-test": "Tetranychus cinnabarinus", "endpoint-result": "> 80%"}
{"compound": "Cc1cc(C2=NOC(c3cc(Cl)c(F)c(Cl)c3)(C(F)(F)F)C2)ccc1C(=O)NCc1ncccc1Cl (stereo not shown)", "system-under-test": "Tetranychus cinnabarinus", "endpoint-result": "> 80%"}

Query string: What does the record list as pest or weed control at 1 ppm for Cc1cc(C2=NOC(c3cc(Cl)c(F)c(Cl)c3)(C(F)(F)F)C2)ccc1C(=O)NCc1cnccc1C(F)(F)F (stereo not shown) ?
Result string: > 80%

Query string: What does the record list as pest or weed control at 1 ppm for Cc1cc(C2=NOC(c3cc(Cl)c(F)c(Cl)c3)(C(F)(F)F)C2)ccc1C(=O)NCc1cnc(Cl)cc1C(F)(F)F (stereo not shown) ?
Result string: > 80%

----------
Test system: Frankliniella occidentalis
test-name: Insecticidal activity, spray on pre-infested radish plants: Frankliniella occidentalis
Type: in vivo
conditions-used: 1 ppm, Table 3
metric: Fatality rate on Frankliniella occidentalis (%)
# unit: % | format: bare number

{"compound": "Cc1cc(C2=NOC(c3cc(Cl)c(F)c(Cl)c3)(C(F)(F)F)C2)ccc1C(=O)NCc1ccc(Cl)nc1 (centres unmarked)", "system-under-test": "Frankliniella occidentalis", "endpoint-result": 95}
{"compound": "Cc1cc(C2=NOC(c3cc(Cl)cc(Cl)c3)(C(F)(F)F)C2)ccc1C(=O)NCc1ccc(Cl)nc1 (centres unmarked) [CK1, reference compound]", "system-under-test": "Frankliniella occidentalis", "endpoint-result": 0}
{"compound": "Cc1cc(C2=NOC(c3cc(F)c(F)c(F)c3)(C(F)(F)F)C2)ccc1C(=O)NCc1ccc(Cl)nc1 (centres unmarked)", "system-under-test": "Frankliniella occidentalis", "endpoint-result": 90}
{"compound": "Cc1cc(C2=NOC(c3cc(Cl)c(F)c(Cl)c3)(C(F)(F)F)C2)ccc1C(=O)NCc1ncc(C(F)(F)F)cc1Cl (centres unmarked)", "system-under-test": "Frankliniella occidentalis", "endpoint-result": 95}

Here is the next item to consider.
Query string: What does the record list as Fatality rate on Frankliniella occidentalis (%) for Cc1cc(C2=NOC(c3cc(F)c(F)c(F)c3)(C(F)(F)F)C2)ccc1C(=O)NCc1ncc(C(F)(F)F)cc1Cl (centres unmarked) ?
Result string: 85
